# TARGET_OR_SYSTEM: T1, human ErbB3-Fc (R&D Systems) (human, UniProt P21860 20-643)
# T1 construct: Bought protein; also called wild-type ErbB3-Fc fusion; immobilized ErbB3; not shown: Fc part of the bought fusion protein; not described
# PROTOCOL: ELISA on ErbB3-Fc, soluble monovalent Sab (Example 42)
MEASUREMENT_KIND: pEC50
Would you please state pEC50, meaning minus log10 of the concentration in mol/L, as a bare number?

Name the recorded pEC50 for 3000-A07 (other) VH: EVQLLESGGGLVQPGGSLRLSCAASGFTFSDYWMHWVRQAPGKGLEWVAVISGGGAYKYYADSVKGRFTISRDNSKNTLYLQMNSLRAEDTAVYYCAKDNEKNLYTWLDYWGQGTLVTVSS surrogate light: QPVLHQPPAMSSALGTTIRLTCTLRNDHDIGVYSVYWYQQRPGHPPRFLLRYFSQSDKSQGPQVPPRFSGSKDVARNRGYLSISELQPEDEAMYYCAMGARSSVTHVFGSGTQLTVLSQPKATPSVTLFPPSSEELQANKATLVCLMNDFYPGILTVTWKADGTPITQGVEMTTPSKQSNNKYAASSYLSLTPEQWRSRRSYSCQVMHEGSTVEKTVAPAECS .
10.06
